system: SW-1736; experiment: Cytotoxicity against human SW1736 cells after 96 hrs by SRB assay; assay type: functional, cell-based; details: SW-1736, 96 h
Some compounds, each annotated with its measured pIC50.
Would you please state pIC50, meaning minus log10 of the concentration in mol/L, as a bare number?

I'm curious: which pIC50 was measured for C=C(C)[C@@H]1CC[C@]2([C@H](O)[C@H]3CCOC3=O)CC[C@]3(C)[C@H](CC[C@@H]4[C@@]5(C)CC[C@H](OC(C)=O)C(C)(C)[C@@H]5CC[C@]43C)[C@@H]12 tested on SW-1736?
4.73

Param item: C=C(C)[C@@H]1CC[C@]2([C@H](O)CC(=O)CC(=O)OCC)CC[C@]3(C)[C@H](CC[C@@H]4[C@@]5(C)CC[C@H](OC(C)=O)C(C)(C)[C@@H]5CC[C@]43C)[C@@H]12
4.97

Repeat for the following compound: C=C(C)[C@@H]1CC[C@]2([C@H](O)[C@H]3C=CC(=O)O3)CC[C@]3(C)[C@H](CC[C@@H]4[C@@]5(C)CC[C@H](OC(C)=O)C(C)(C)[C@@H]5CC[C@]43C)[C@@H]12
4.83

Ok, now CCOC(=O)C[C@H]1O[C@@H]2[C@@H]3[C@H]4CC[C@@H]5[C@@]6(C)CC[C@H](OC(C)=O)C(C)(C)[C@@H]6CC[C@@]5(C)[C@]4(C)CC[C@@]31CCC2(C)C
4.59

Note, next up: C=C(C)[C@@H]1CC[C@]2([C@@H]3O[C@H]3C(=O)OC)CC[C@]3(C)[C@H](CC[C@@H]4[C@@]5(C)CC[C@H](OC(C)=O)C(C)(C)[C@@H]5CC[C@]43C)[C@@H]12
4.75

Queued: CCOC(=O)CC(=O)C[C@H]1O[C@@H]2[C@@H]3[C@H]4CC[C@@H]5[C@@]6(C)CC[C@H](OC(C)=O)C(C)(C)[C@@H]6CC[C@@]5(C)[C@]4(C)CC[C@@]31CCC2(C)C
4.95

Okay, and C=C(C)[C@@H]1CC[C@]2([C@H](O)CC(=O)OCC)CC[C@]3(C)[C@H](CC[C@@H]4[C@@]5(C)CC[C@H](OC(C)=O)C(C)(C)[C@@H]5CC[C@]43C)[C@@H]12 ?
4.63

How about C=C(C)[C@@H]1CC[C@]2(/C=C3\CCOC3=O)CC[C@]3(C)[C@H](CC[C@@H]4[C@@]5(C)CC[C@H](OC(C)=O)C(C)(C)[C@@H]5CC[C@]43C)[C@@H]12 ?
4.73

Please give the result for C=C(C)[C@@H]1CC[C@]2(C(=O)[C@H]3CCOC3=O)CC[C@]3(C)[C@H](CC[C@@H]4[C@@]5(C)CC[C@H](OC(C)=O)C(C)(C)[C@@H]5CC[C@]43C)[C@@H]12 (mixture of isomers) too.
5.21

The reported numbers originate from ChEMBL document CHEMBL1159047.
